Entry source: the NIST ThermoML archive (doi:10.1016/j.tca.2014.05.033)

test: mn = molality of the nth substance listed, in mol/kg; settings: 298.15 K; 101 kPa; Liquid; Vibrating tube method; m2 = 0
This section presents compounds with their documented mass density values.
Numeric only. Scale: kg/m3

Consider the reported mass density for these compounds:
c1ccccc1 [benzene] + c1ccc(-c2c3ccccc3c(-c3ccccc3)c3ccccc23)cc1 : 873.534
c1ccccc1 [benzene] + c1ccc(-c2cccc(-c3ccccc3)c2)cc1 : 873.483
c1ccccc1 [benzene] + c1ccc(-c2c3ccccc3cc3ccccc23)cc1 : 873.612
c1ccccc1 [benzene] + c1ccc(-c2c(-c3ccccc3)c(-c3ccccc3)c3ccccc3c2-c2ccccc2)cc1 : 873.277
c1ccccc1 [benzene] + C(#Cc1ccccc1)c1ccccc1 : 873.285

Proceed to the following item.
Input: Any idea what mass density was measured for c1ccccc1 [benzene] + c1ccc(-c2cccc(-c3ccccc3)c2-c2ccccc2)cc1 ?
Output: 873.584

* * *

This section presents compounds with their documented refractive index values.
assay: refractive index (Na D-line) (dimensionless); mn = molality of the nth substance listed, in mol/kg; conditions: 298.15 K; 101 kPa; Liquid; Standard Abbe refractometry; m2 = 0
Please give the numeric answer without any surrounding text.

Consider the reported refractive index for these compounds:
c1ccccc1 [benzene] + c1ccc(-c2cccc(-c3ccccc3)c2-c2ccccc2)cc1 : 1.49778
c1ccccc1 [benzene] + c1ccc(-c2c(-c3ccccc3)c(-c3ccccc3)c3ccccc3c2-c2ccccc2)cc1 : 1.49731
c1ccccc1 [benzene] + c1ccc(-c2cccc(-c3ccccc3)c2)cc1 : 1.49772
c1ccccc1 [benzene] + c1ccc(-c2c3ccccc3cc3ccccc23)cc1 : 1.49758
c1ccccc1 [benzene] + c1ccc(-c2c3ccccc3c(-c3ccccc3)c3ccccc23)cc1 : 1.49752

Proceed to the following item.
Input: Any idea what refractive index was measured for c1ccccc1 [benzene] + C(#Cc1ccccc1)c1ccccc1 ?
Output: 1.49734

* * *

experiment: molar enthalpy of vaporization or sublimation; conditions: 298.15 K; Crystal; DSC
Just so you know, the groups by molar enthalpy go like this: lowest: < 30 kcal/mol; middle: ≥ 30 kcal/mol and < 40 kcal/mol; highest: ≥ 40 kcal/mol

Input: Please report the category associated with c1ccc(-c2ccccc2-c2ccccc2)cc1 , nothing else.
Output: lowest

Input: Again, but for c1ccc(-c2c3ccccc3c(-c3ccccc3)c3c(-c4ccccc4)c4ccccc4c(-c4ccccc4)c23)cc1
Output: highest

Input: Again, but for C(=C\c1ccccc1)/c1ccccc1 [(E)-1,2-diphenylethene]
Output: lowest

Input: Again, but for C(#Cc1ccccc1)c1ccccc1
Output: lowest

Input: Again, but for c1ccc(-c2cccc(-c3ccccc3)c2)cc1
Output: lowest

Input: Again, but for c1ccc2c(c1)ccc1cc3c(ccc4ccccc43)cc12 [dibenz[a,h]anthracene]
Output: middle

Input: Again, but for c1ccc(-c2c(-c3ccccc3)c(-c3ccccc3)c(-c3ccccc3)c(-c3ccccc3)c2-c2ccccc2)cc1
Output: highest

Input: Again, but for c1ccc2cc3c(ccc4ccccc43)cc2c1 [benz[a]anthracene]
Output: lowest

Input: Again, but for c1cc2ccc3cccc4ccc(c1)c2c34
Output: lowest

Input: Again, but for c1ccc(-c2cccc(-c3ccccc3)c2-c2ccccc2)cc1
Output: middle

Input: Again, but for c1ccc2c(c1)-c1cccc3cccc-2c13
Output: lowest

Input: Again, but for c1ccc(-c2c3ccccc3c(-c3ccccc3)c3ccccc23)cc1
Output: middle

Input: Again, but for c1ccc(-c2ccc(-c3ccccc3)cc2)cc1
Output: lowest
